Reference source for all entries: ChEMBL document CHEMBL5352392

# test system: Serine/threonine-protein kinase mTOR (Homo sapiens, UniProt P42345)
# method: Inhibition of mTOR (unknown origin) at 100 nM by kinase profiling assay relative to control
quantity name: inhibition (%)
Express the result in % but write the number alone.

// below: answered molecules
1. CC(C)c1cc(C(=O)N2CCc3c(sc4nc(N5CCOCC5)nc(N5CCC(N(C)C)CC5)c34)C2)c(O)cc1O | 76.7
2. CC(C)c1cc(C(=O)N2CCc3c(sc4nc(-c5ccc(NC(=O)Nc6cc(F)cc(F)c6)cc5)nc(N5CCOCC5)c34)C2)c(O)cc1O | 70.5
3. CC(C)c1cc(C(=O)N2CCc3c(sc4nc(-c5ccc(NC(=O)Nc6ccccc6Cl)cc5)nc(N5CCOCC5)c34)C2)c(O)cc1O | 76.8

Hi! What's the reported inhibition for CC(C)c1cc(C(=O)N2CCc3c(sc4nc(N5CCC(F)(F)CC5)nc(N5CCOCC5)c34)C2)c(O)cc1O on Serine/threonine-protein kinase mTOR (Homo sapiens, UniProt P42345)?
41.3
